- target.desc: CYP1A1 (Homo sapiens, UniProt P04798)
- Sequence (P04798 1-512): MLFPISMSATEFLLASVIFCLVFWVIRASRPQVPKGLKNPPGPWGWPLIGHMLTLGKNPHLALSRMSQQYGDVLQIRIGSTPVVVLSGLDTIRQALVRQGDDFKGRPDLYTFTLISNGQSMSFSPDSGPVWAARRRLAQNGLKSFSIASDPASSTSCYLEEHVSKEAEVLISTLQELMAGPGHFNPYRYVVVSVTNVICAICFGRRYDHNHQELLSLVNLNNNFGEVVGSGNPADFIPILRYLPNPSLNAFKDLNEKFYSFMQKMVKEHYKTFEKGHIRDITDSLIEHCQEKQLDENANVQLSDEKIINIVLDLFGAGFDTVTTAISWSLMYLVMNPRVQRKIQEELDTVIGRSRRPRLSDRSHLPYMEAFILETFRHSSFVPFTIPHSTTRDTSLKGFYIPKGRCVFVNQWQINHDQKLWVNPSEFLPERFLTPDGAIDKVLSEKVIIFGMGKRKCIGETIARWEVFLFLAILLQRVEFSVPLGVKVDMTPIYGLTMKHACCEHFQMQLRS
- assay.explanation: in vitro
- experimental.context: pH 7.4, CYP1A1 enzyme activity (%), MNF 2.5 µM, replicate II, positive control

{"molecule": "COc1cc(-c2cc(=O)c3ccccc3o2)ccc1[N+](=O)[O-] [MNF]", "target.desc": "CYP1A1 (Homo sapiens, UniProt P04798)", "uom": "%", "activity": 1.54}
